pIC50: −log10 of the molar value.
Let's go through some recorded pIC50 values for UniProt Q9NWZ3 together.
Sequence (Q9NWZ3 160-460): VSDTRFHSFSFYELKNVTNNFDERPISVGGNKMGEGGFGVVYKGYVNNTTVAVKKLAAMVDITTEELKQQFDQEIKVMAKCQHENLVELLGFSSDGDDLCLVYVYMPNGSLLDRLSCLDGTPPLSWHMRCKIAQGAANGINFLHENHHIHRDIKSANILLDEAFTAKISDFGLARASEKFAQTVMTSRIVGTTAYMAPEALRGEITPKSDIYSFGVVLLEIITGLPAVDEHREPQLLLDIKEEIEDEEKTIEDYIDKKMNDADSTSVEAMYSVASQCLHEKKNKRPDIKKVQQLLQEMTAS

Use these answered entries as a reference point.
CC1(C)OC(=O)c2ccc(Nc3ncc(-c4nc(C5(CO)CC5)no4)c(N[C@H](CO)c4ccccc4)n3)cc21 [Example 38] :: 6.60 to 7.30
CCn1nc(-c2cnc(Nc3ccc4c(c3)C(C)(C)OC4=O)nc2N[C@H](CO)c2ccccc2)oc1=O [Example 53] :: 6.00 to 6.60
Cc1cnc(CNC(=O)c2cnc(Nc3ccc4c(c3)C(C)(C)OC4=O)nc2N[C@H](CO)c2ccccc2)cn1 [Example 20] :: 6.00 to 6.60
Cc1ccccc1CNC(=O)c1cnc(Nc2ccc3c(c2)C(C)(C)OC3=O)nc1N[C@H](CO)c1ccccc1 [Example 16] :: 6.00 to 6.60

Now look at this one.
pIC50 measured on CC1(C)OC(=O)c2ccc(Nc3cc(N[C@H](CO)c4ccccc4)c(-c4nnc(C5CC5)o4)cn3)nc21 [Example 86] = 6.60 to 7.30

* * *

- testedTarget: HPK1 (Homo sapiens)
- Construct: purchased SignalChem M23-11G
- assayProcedure: HPK1 Inhibition Assay (kinase reaction, Caliper capillary electrophoresis)
- Format: biochemical
- cond: ratio of the IRAK4 IC50 value to the HPK1 IC50 value
- Description: The reactions were incubated out for three hours and quenched with 1 mM EDTA solution. The reaction incubation time and enzyme concentration were optimized to obtain a maximum peptide substrate conversion of 20-30%. The reaction mixtures were analyzed by capillary electrophoresis on a Caliper LabChip EZ Reader to resolve phosphorylated and unphosphorylated peptide species and determine peptide substrate conversion. […]
measuredEndpoint: IRAK4/HPK1 Ratio

Here's what some known entries look like.
O=C1OC2(CCCC2)c2nc(Nc3cc(N[C@H](CO)c4ccccc4)c(-c4nc(C5CC5)no4)cn3)ccc21 :: B (B=10 to 50)
CN(C)CCCNC(=O)c1cnc(Nc2ccc3c(c2)C(C)(C)OC3=O)nc1N[C@H](CO)c1ccccc1 :: B (B=10 to 50)
COCCNC(=O)c1cnc(Nc2ccc3c(c2)C(C)(C)OC3=O)nc1N[C@H](CO)c1ccccc1 :: B (B=10 to 50)
Cc1cnc(CNC(=O)c2cnc(Nc3ccc4c(c3)C(C)(C)OC4=O)nc2N[C@H](CO)c2ccccc2)cn1 :: B (B=10 to 50)
CC1(C)OC(=O)c2ccc(Nc3ncc(C(=O)NC[C@@]4(O)CN5CCC4CC5)c(N[C@H](CO)c4ccccc4)n3)cc21 :: B (B=10 to 50)
CC1(C)OC(=O)c2ccc(Nc3ncc(-c4nc(C5(CO)CC5)no4)c(N[C@H](CO)c4ccccc4)n3)cc21 :: C (C=>50)

The record that follows has no IRAK4/HPK1 Ratio shown yet.
The value of IRAK4/HPK1 Ratio measured for the compound CCCCc1noc(-c2cnc(Nc3ccc4c(c3)C(C)(C)OC4=O)nc2N[C@H](CO)c2ccccc2)n1 turned out to be C (C=>50)

* * *

- testedTarget: HPK1 (Homo sapiens, UniProt Q92918)
- Construct: purchased SignalChem M23-11G
- Sequence (Q92918 1-346 limits assumed): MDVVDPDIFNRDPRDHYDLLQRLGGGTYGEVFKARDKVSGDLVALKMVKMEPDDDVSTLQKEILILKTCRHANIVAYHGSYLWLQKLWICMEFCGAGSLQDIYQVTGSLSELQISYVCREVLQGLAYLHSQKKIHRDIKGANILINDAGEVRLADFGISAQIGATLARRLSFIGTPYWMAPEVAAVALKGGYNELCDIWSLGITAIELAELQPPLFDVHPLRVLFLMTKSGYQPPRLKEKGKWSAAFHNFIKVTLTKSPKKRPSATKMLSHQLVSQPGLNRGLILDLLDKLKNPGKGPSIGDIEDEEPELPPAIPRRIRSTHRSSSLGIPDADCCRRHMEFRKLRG
- assayProcedure: HPK1 Inhibition Assay (kinase reaction, Caliper capillary electrophoresis)
- Assay type: biochemical
- cond: ratio of the IRAK4 IC50 value to the HPK1 IC50 value
measuredEndpoint: IRAK4/HPK1 Ratio

Worked cases, answers included:
CC(C)(C)NC(=O)c1cnc(Nc2ccc3c(c2)C(C)(C)OC3=O)nc1N[C@H](CO)c1ccccc1 [Example 11] :: B (B=10 to 50)
CC(C)(CCCCO)c1noc(-c2cnc(Nc3ccc4c(c3)C(C)(C)OC4=O)nc2N[C@H](CO)c2ccccc2)n1 [Example 37] :: C (C=>50)
CC1(C)OC(=O)c2ccc(Nc3ncc(C(=O)NN)c(N[C@H](CO)c4ccccc4)n3)cc21 [Example 51] :: C (C=>50)
CC1(C)OC(=O)c2ccc(Nc3cc(N[C@H](CO)c4ccccc4)c(-c4nnc(C5(C#N)CC5)o4)cn3)nc21 [Example 88] :: C (C=>50)
CC1(C)OC(=O)c2ccc(Nc3ncc(C(=O)N[C@H]4C[C@@H]4c4ccccc4)c(N[C@H](CO)c4ccccc4)n3)cc21 [Example 17] :: B (B=10 to 50)
CC1(C)OC(=O)c2ccc(Nc3cc(N[C@H](CO)c4ccccc4)c(-c4nc(C56CCN(CC5)CC6)no4)cn3)nc21 [Example 81] :: C (C=>50)
CC1(C)OC(=O)c2ccc(Nc3ncc(-c4n[nH]c(=O)o4)c(N[C@H](CO)c4ccccc4)n3)cc21 [Example 52] :: C (C=>50)
CC1(C)OC(=O)c2ccc(Nc3cc(N[C@H](CO)c4ccccc4)c(-c4nnc(C5CC5)o4)cn3)nc21 [Example 86] :: B (B=10 to 50)

State the recorded IRAK4/HPK1 Ratio for every item in the following list.
1. CC(=O)NC12CC(c3noc(-c4cnc(Nc5ccc6c(c5)C(C)(C)OC6=O)nc4N[C@H](CO)c4ccccc4)n3)(C1)C2 [Example 49]
2. CC1(C)OC(=O)c2ccc(Nc3cc(N[C@H](CO)c4ccc(F)cc4)c(-c4nc(C56CCN(CC5)CC6)no4)cn3)nc21 [Example 82]
3. CC1(C)OC(=O)c2ccc(Nc3cc(N[C@H](CO)c4ccccc4)c(-c4nc(C5CC5)no4)cn3)cc21 [Example 78]
4. CC1(C)OC(=O)c2ccc(Nc3ncc(C(=O)NNC(=O)C4CC4)c(N[C@H](CO)c4ccccc4)n3)cc21 [Example 62]
5. CC(C)CNC(=O)c1cnc(Nc2ccc3c(c2)C(C)(C)OC3=O)nc1N[C@H](CO)c1ccccc1 [Example 12]
6. CC1(C)OC(=O)c2ccc(Nc3ncc(-c4nc(C5CC(F)(F)C5)no4)c(N[C@H](CO)c4ccccc4)n3)cc21 [Example 40]
7. CCn1nc(-c2cnc(Nc3ccc4c(c3)C(C)(C)OC4=O)nc2N[C@H](CO)c2ccccc2)oc1=O [Example 53]
8. CC1(C)OC(=O)c2ccc(Nc3ncc(-c4nc(-c5ccccn5)no4)c(N[C@H](CO)c4ccccc4)n3)cc21 [Example 42]

1. C (C=>50)
2. C (C=>50)
3. B (B=10 to 50)
4. C (C=>50)
5. B (B=10 to 50)
6. C (C=>50)
7. C (C=>50)
8. C (C=>50)

Provide IRAK4/HPK1 Ratio values for the following items, in order.
1. CC1(C)OC(=O)c2ccc(Nc3ncc(-c4nnc(C5(C(F)(F)F)CC5)o4)c(N[C@H](CO)c4ccccc4)n3)cc21 [Example 68]
2. CC1(C)OC(=O)c2ccc(Nc3ncc(-c4nc(C56CC(N)(C5)C6)no4)c(N[C@H](CO)c4ccccc4)n3)cc21 [Example 47]
3. CC1(C)OC(=O)c2ccc(Nc3ncc(-c4nnc(C(C)(O)C(F)(F)F)o4)c(N[C@H](CO)c4ccccc4)n3)cc21 (stereo partly shown) [Example 65]
4. CC1(C)OC(=O)c2ccc(Nc3ncc(C(=O)NCCCN4CCOCC4)c(N[C@H](CO)c4ccccc4)n3)cc21 [Example 7]
5. CCOC(=O)c1cnc(Nc2ccc3c(c2)C(C)(C)OC3=O)nc1NCCC(C)(C)N [Example 76]
6. CC1(C)OC(=O)c2ccc(Nc3ncc(C(=O)NCCCn4ccnc4)c(N[C@H](CO)c4ccccc4)n3)cc21 [Example 19]

["B (B=10 to 50)", "C (C=>50)", "B (B=10 to 50)", "B (B=10 to 50)", "B (B=10 to 50)", "B (B=10 to 50)"]

List the reported IRAK4/HPK1 Ratio of each compound below.
1. CC1(CNC(=O)c2cnc(Nc3ccc4c(c3)C(C)(C)OC4=O)nc2N[C@H](CO)c2ccccc2)COC1 [Example 23]
2. CN(C)C12CC(c3noc(-c4cnc(Nc5ccc6c(c5)C(C)(C)OC6=O)nc4N[C@H](CO)c4ccccc4)n3)(C1)C2 [Example 48]
3. CC(C)(CN)CNc1nc(Nc2ccc3c(c2)C(C)(C)OC3=O)ncc1-c1nc(C2CCOCC2)no1 [Example 77]
4. CC1(C)OC(=O)c2ccc(Nc3ncc(-c4nc(CN5CCOCC5)no4)c(N[C@H](CO)c4ccccc4)n3)cc21 [Example 32]
5. Cc1noc(-c2cnc(Nc3ccc4c(c3)C(C)(C)OC4=O)nc2Nc2ccc3[nH]ncc3c2)n1 [Example 74]
6. CC1(C)OC(=O)c2ccc(Nc3ncc(-c4nc(N5CCOCC5)no4)c(N[C@H](CO)c4ccccc4)n3)cc21 [Example 31]

1. B (B=10 to 50)
2. C (C=>50)
3. C (C=>50)
4. C (C=>50)
5. B (B=10 to 50)
6. C (C=>50)

Origin of values: patent US11166959B2
